Reference source: patent US20260028365A1

Molecular target: JH2 domain of human Tyk2 (Homo sapiens (Human), UniProt P29597)
Sequence (P29597 575-876): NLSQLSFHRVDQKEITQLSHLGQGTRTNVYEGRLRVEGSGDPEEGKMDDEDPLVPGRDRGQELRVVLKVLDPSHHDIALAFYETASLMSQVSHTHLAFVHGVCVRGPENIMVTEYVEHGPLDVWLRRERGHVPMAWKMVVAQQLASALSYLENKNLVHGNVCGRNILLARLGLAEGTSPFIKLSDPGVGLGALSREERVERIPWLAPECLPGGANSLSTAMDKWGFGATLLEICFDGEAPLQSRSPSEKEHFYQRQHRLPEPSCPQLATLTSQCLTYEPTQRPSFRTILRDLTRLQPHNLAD
Test: JH2 Biochemical Assay (TR-FRET probe displacement)
Type: binding
Details: JH2 domain of human Tyk2, TR-FRET probe displacement
ASSAY READOUT: IC50

COc1cnc(NC(C)=O)cc1Nc1cc(-c2cn[nH]c2)nc(C(C)(F)F)n1 : ≤ 0.01 µM

Input: Give the reported value of IC50 for this record: `CC(=O)Nc1cc(Nc2ccnc(C(C)(F)F)n2)c(-c2cncc(OC3COC3)n2)cn1`
Output: 0.01 to 0.1 µM

Input: Give the reported value of IC50 for this record: `CC(=O)Nc1cc(Nc2ccnc(C(C)(F)F)n2)c(-c2cncc(CC#N)n2)cn1`
Output: ≤ 0.01 µM

Input: Give the reported value of IC50 for this record: `COCC12CC(c3nc(C)cc(Nc4cc(NC(C)=O)ncc4-c4ccn(C)n4)n3)(CO1)C2`
Output: 0.01 to 0.1 µM

Input: Give the reported value of IC50 for this record: CC(=O)Nc1cc(Nc2cc(C)nc(C(C)(F)F)n2)c(OCC(F)C(C)C)cn1 (centres unmarked)
Output: ≤ 0.01 µM

Input: Give the reported value of IC50 for this record: `CCCn1ccc(-c2cnc(NC(C)=O)cc2Nc2ccnc(C(C)(F)F)n2)n1`
Output: ≤ 0.01 µM

Input: Give the reported value of IC50 for this record: `COCCOc1ccnc(Nc2cc(NC(C)=O)ncc2-c2ccn(C)n2)n1`
Output: ≤ 0.01 µM
